assay: Solubility of Form A and Form B of Compound 2 in bio-relevant media; type: physicochemical; settings: FeSSIF, 37 °C, pH 5, fessif, thermodynamic from solid, FeSSiF (pH 5.0), 24 h
Outcome Measure: solubility at 24 h (µg/mL)
One number for each entry, in µg/mL.

Query block: For the compound C=CC(=O)N1C[C@H](C)N(c2nc(=O)n(-c3c(C4CC4)ncnc3C3CC3)c3nc(-c4c(N)cccc4F)c(F)cc23)C[C@H]1C (single isomer, unassigned) [Form B] , give its reported solubility at 24 h.
Result block: 37

---

assay: Solubility of Compound 1 solid forms in bio-relevant media and water; assay type: physicochemical; conditions: SGF, 37 °C, simulated gastric fluid, thermodynamic from solid, 0.5 h
Outcome Measure: solubility at 0.5 h (µg/mL)
Answers are plain numbers, in µg/mL.

Query block: For the compound C=CC(=O)N1C[C@H](C)N(c2nc(=O)n(-c3c(C4CC4)ncnc3C3CC3)c3nc(-c4c(N)cccc4F)c(Cl)cc23)C[C@H]1C [Form IV] , give its reported solubility at 0.5 h.
Result block: 36

---

experiment: Solubility of Compound 1 solid forms in bio-relevant media and water; format: physicochemical; details: SGF, FeSSIF, water, 37 °C, thermodynamic from solid, media other than FaSSIF (SGF, FeSSIF, water); read-out: Solubility in other media
Outcome Measure: Solubility

Query block: For the compound C=CC(=O)N1C[C@H](C)N(c2nc(=O)n(-c3c(C4CC4)ncnc3C3CC3)c3nc(-c4c(N)cccc4F)c(Cl)cc23)C[C@H]1C [Form IV] , give its reported Solubility.
Result block: < 70 µg/mL

---

experiment: Solubility of Form A and Form B of Compound 2 in bio-relevant media; format: physicochemical; conditions: SGF, 37 °C, pH 1.2, simulated gastric fluid, thermodynamic from solid, SGF (pH 1.2), 2 h
Outcome Measure: solubility at 2 h (µg/mL)
Answers are plain numbers, in µg/mL.

Query block: For the compound C=CC(=O)N1C[C@H](C)N(c2nc(=O)n(-c3c(C4CC4)ncnc3C3CC3)c3nc(-c4c(N)cccc4F)c(F)cc23)C[C@H]1C (single isomer, unassigned) [Form B] , give its reported solubility at 2 h.
Result block: 58

---

experiment: Solubility of Form A and Form B of Compound 2 in bio-relevant media; type: physicochemical; details: FaSSIF, 37 °C, pH 6.5, fassif, thermodynamic from solid, FaSSIF (pH 6.5), 24 h
Outcome Measure: solubility at 24 h (µg/mL)
Numbers only, in µg/mL.

Query block: For the compound C=CC(=O)N1C[C@H](C)N(c2nc(=O)n(-c3c(C4CC4)ncnc3C3CC3)c3nc(-c4c(N)cccc4F)c(F)cc23)C[C@H]1C (single isomer, unassigned) [Form B] , give its reported solubility at 24 h.
Result block: 18

---

test: Solubility of Form A of Compound 2 in organic solvents; format: physicochemical; conditions: MeOH, butanone, THF, ACN, acetone, organic solvent or mixture; read-out: Solubility in MeOH, butanone, THF, ACN and acetone
Outcome Measure: Solubility

Query block: For the compound C=CC(=O)N1C[C@H](C)N(c2nc(=O)n(-c3c(C4CC4)ncnc3C3CC3)c3nc(-c4c(N)cccc4F)c(F)cc23)C[C@H]1C (single isomer, unassigned) [Form A] , give its reported Solubility.
Result block: 20 to 33 mg/mL

---

assay: Solubility of Form A and Form B of Compound 2 in bio-relevant media; type: physicochemical; details: FaSSIF, 37 °C, pH 6.5, fassif, thermodynamic from solid, FaSSIF (pH 6.5), 0.5 h
Outcome Measure: solubility at 0.5 h (µg/mL)
One number for each entry, in µg/mL.

Query block: For the compound C=CC(=O)N1C[C@H](C)N(c2nc(=O)n(-c3c(C4CC4)ncnc3C3CC3)c3nc(-c4c(N)cccc4F)c(F)cc23)C[C@H]1C (single isomer, unassigned) [Form B] , give its reported solubility at 0.5 h.
Result block: 16

---

Assay: Solubility of Compound 1 solid forms in bio-relevant media and water
Assay type: physicochemical
Conditions: water, 37 °C, thermodynamic from solid, 0.5 h
Description: Solubility Studies: Solubility of Form IV was tested in three bio-relevant media (Simulated Gastric Fluid (SGF), Fasted State Simulated Intestinal Fluid (FaSSIF), and Fed State Simulated Intestinal Fluid (FeSSIF)) and water. […] The filtrate was analyzed by HPLC and pH meter, and the residual solids were also checked by XRPD at 24 hours.
Outcome Measure: solubility at 0.5 h (µg/mL)
Numbers only, in µg/mL.

Query block: For the molecule C=CC(=O)N1C[C@H](C)N(c2nc(=O)n(-c3c(C4CC4)ncnc3C3CC3)c3nc(-c4c(N)cccc4F)c(Cl)cc23)C[C@H]1C [Form IV] , give its reported solubility at 0.5 h.
Result block: 14

---

assay: Solubility of Compound 1 solid forms in bio-relevant media and water; format: physicochemical; conditions: water, 37 °C, thermodynamic from solid, 24 h
Outcome Measure: solubility at 24 h (µg/mL)
Give bare numbers, in µg/mL.

Query block: For the compound C=CC(=O)N1C[C@H](C)N(c2nc(=O)n(-c3c(C4CC4)ncnc3C3CC3)c3nc(-c4c(N)cccc4F)c(Cl)cc23)C[C@H]1C [Form IV] , give its reported solubility at 24 h.
Result block: 9

---

assay: Solubility of Form A and Form B of Compound 2 in bio-relevant media; assay type: physicochemical; settings: FeSSIF, 37 °C, pH 5, fessif, thermodynamic from solid, FeSSiF (pH 5.0), 2 h
Outcome Measure: solubility at 2 h (µg/mL)
Give bare numbers, in µg/mL.

Query block: For the compound C=CC(=O)N1C[C@H](C)N(c2nc(=O)n(-c3c(C4CC4)ncnc3C3CC3)c3nc(-c4c(N)cccc4F)c(F)cc23)C[C@H]1C (single isomer, unassigned) [Form B] , give its reported solubility at 2 h.
Result block: 43

---

assay: Solubility of Form A and Form B of Compound 2 in bio-relevant media; assay type: physicochemical; settings: water, 37 °C, thermodynamic from solid, 2 h
Outcome Measure: solubility at 2 h (µg/mL)
Numbers only, in µg/mL.

Query block: For the compound C=CC(=O)N1C[C@H](C)N(c2nc(=O)n(-c3c(C4CC4)ncnc3C3CC3)c3nc(-c4c(N)cccc4F)c(F)cc23)C[C@H]1C (single isomer, unassigned) [Form B] , give its reported solubility at 2 h.
Result block: 20

---

assay: Solubility of Form A and Form B of Compound 2 in bio-relevant media; format: physicochemical; conditions: FeSSIF, 37 °C, pH 5, fessif, thermodynamic from solid, FeSSiF (pH 5.0), 0.5 h
Outcome Measure: solubility at 0.5 h (mg/mL)
Answers are plain numbers, in mg/mL.

Query block: For the molecule C=CC(=O)N1C[C@H](C)N(c2nc(=O)n(-c3c(C4CC4)ncnc3C3CC3)c3nc(-c4c(N)cccc4F)c(F)cc23)C[C@H]1C (single isomer, unassigned) [Form B] , give its reported solubility at 0.5 h.
Result block: 0.044

---

experiment: Solubility of Form A and Form B of Compound 2 in bio-relevant media; format: physicochemical; conditions: water, 37 °C, thermodynamic from solid, 0.5 h
Outcome Measure: solubility at 0.5 h
The reply must contain the numeric value and, after it, the unit.

Query block: For the molecule C=CC(=O)N1C[C@H](C)N(c2nc(=O)n(-c3c(C4CC4)ncnc3C3CC3)c3nc(-c4c(N)cccc4F)c(F)cc23)C[C@H]1C (single isomer, unassigned) [Form B] , give its reported solubility at 0.5 h.
Result block: 21 µg/mL

---

experiment: Solubility of Form A and Form B of Compound 2 in bio-relevant media; assay type: physicochemical; details: FaSSIF, 37 °C, pH 6.5, fassif, thermodynamic from solid, FaSSIF (pH 6.5), 2 h
Outcome Measure: solubility at 2 h (µg/mL)
Give bare numbers, in µg/mL.

Query block: For the compound C=CC(=O)N1C[C@H](C)N(c2nc(=O)n(-c3c(C4CC4)ncnc3C3CC3)c3nc(-c4c(N)cccc4F)c(F)cc23)C[C@H]1C (single isomer, unassigned) [Form B] , give its reported solubility at 2 h.
Result block: 51

---

test: Solubility of Compound 1 solid forms in bio-relevant media and water; assay type: physicochemical; conditions: FeSSIF, 37 °C, thermodynamic from solid, 24 h
Outcome Measure: solubility at 24 h (µg/mL)
One number for each entry, in µg/mL.

Query block: For the compound C=CC(=O)N1C[C@H](C)N(c2nc(=O)n(-c3c(C4CC4)ncnc3C3CC3)c3nc(-c4c(N)cccc4F)c(Cl)cc23)C[C@H]1C [Form IV] , give its reported solubility at 24 h.
Result block: 62

---

test: pKa of Compounds 1 and 2; assay type: physicochemical
So I've got a bunch of compounds here, and I need their pKa values.

- C=CC(=O)N1C[C@H](C)N(c2nc(=O)n(-c3c(C4CC4)ncnc3C3CC3)c3nc(-c4c(N)cccc4F)c(F)cc23)C[C@H]1C: ~3

Query block: For the compound `C=CC(=O)N1C[C@H](C)N(c2nc(=O)n(-c3c(C4CC4)ncnc3C3CC3)c3nc(-c4c(N)cccc4F)c(Cl)cc23)C[C@H]1C` , give its reported pKa.
Result block: ~3
